What Kd was measured for each of the following?
# Target desc: HLA-A*03:01
# Protocol notes: IEDB peptide-MHC binding, purified MHC/competitive/radioactivity; filed as Kd, often an IC50 or EC50 that approximates it; bounds were set here for any values at or beyond the usual limits of such assays
# Condition context: source organism: Vaccinia virus WR

Study these solved cases before continuing.
stdin: What value of Kd has been recorded for this entry: EFLHYCNSY
stdout: ≥ 78 µM

stdin: What value of Kd has been recorded for this entry: GLTPEQKAY
stdout: ≥ 78 µM

Now for a further sequence.
stdin: What value of Kd has been recorded for this entry: FTDISMSLY
stdout: ≥ 32.2 µM

====

# Target desc: HLA-A*02:06
# Protocol notes: IEDB peptide-MHC binding, purified MHC/competitive/radioactivity; filed as Kd, often an IC50 or EC50 that approximates it; bounds were set here for any values at or beyond the usual limits of such assays
# Condition context: source organism: Vaccinia virus WR
What Kd was measured for each of the following?
One number for each entry, in nM.

Study these solved cases before continuing.
stdin: What value of Kd has been recorded for this entry: KTVKNVDII
stdout: 698

stdin: What value of Kd has been recorded for this entry: FLDWIKDIM
stdout: 162

stdin: What value of Kd has been recorded for this entry: KTSTLIFFV
stdout: 1.76

stdin: What value of Kd has been recorded for this entry: PASISSVLTI
stdout: 1550

stdin: What value of Kd has been recorded for this entry: EAAAATCALV
stdout: 60.1

Now for a further sequence.
stdin: What value of Kd has been recorded for this entry: IAEYIAGLKI
stdout: 10200

====

# Target desc: HLA-A*31:01
# Protocol notes: IEDB peptide-MHC binding, purified MHC/competitive/radioactivity; filed as Kd, often an IC50 or EC50 that approximates it; bounds were set here for any values at or beyond the usual limits of such assays
# Condition context: source organism: Vaccinia virus WR
pKd: −log10 of the molar value.
Lab note: compare pKd against 6. Equal or greater, write MET. Smaller, write NOT MET.

stdin: Has MLEGETKLYK a recorded pKd greater than or equal to 6?
stdout: NOT MET

stdin: Has EANASAQTK a recorded pKd greater than or equal to 6?
stdout: NOT MET

stdin: Has FLIVSLCPTK a recorded pKd greater than or equal to 6?
stdout: NOT MET

stdin: Has ILMKTANNY a recorded pKd greater than or equal to 6?
stdout: NOT MET

stdin: Has IMLEGETKLY a recorded pKd greater than or equal to 6?
stdout: NOT MET

Further cases:
stdin: Has IVHSYLKNY a recorded pKd greater than or equal to 6?
stdout: NOT MET

stdin: Has NIAEYIAGLK a recorded pKd greater than or equal to 6?
stdout: NOT MET

stdin: Has PVLKAMHDKK a recorded pKd greater than or equal to 6?
stdout: NOT MET

stdin: Has KTSKTTILSK a recorded pKd greater than or equal to 6?
stdout: MET

====

# Target desc: HLA-A*30:01
# Protocol notes: IEDB peptide-MHC binding, purified MHC/competitive/radioactivity; filed as Kd, often an IC50 or EC50 that approximates it; bounds were set here for any values at or beyond the usual limits of such assays
# Condition context: source organism: Vaccinia virus WR
Value kind: log10 Kd (log10 of the value in µM)
A value of 2 here means Kd of 100 in µM, since values are log10.

stdin: What value of log10 Kd has been recorded for this entry: KSKQLKSFL
stdout: -1.88

stdin: What value of log10 Kd has been recorded for this entry: KTSSFKISK
stdout: -1.06

stdin: What value of log10 Kd has been recorded for this entry: KIGMFNLTF
stdout: 0.68

stdin: What value of log10 Kd has been recorded for this entry: RAILGCAQA
stdout: 0.37

stdin: What value of log10 Kd has been recorded for this entry: NARLMRALK
stdout: -2.65

stdin: What value of log10 Kd has been recorded for this entry: TTKDYFSFK
stdout: -2.91

Go through the list and state log10 Kd for each entry.
1. FPKNDFVSF
2. AVSFSSPIS

stdout:
1. 0.96
2. 0.12

====

What pKd was measured for each of the following?
# Target desc: HLA-B*40:01
# Protocol notes: IEDB peptide-MHC binding, purified MHC/competitive/radioactivity; filed as Kd, often an IC50 or EC50 that approximates it; bounds were set here for any values at or beyond the usual limits of such assays
# Condition context: source organism: SARS coronavirus Tor2
Give bare numbers, as −log10 of the molar value.

Study these solved cases before continuing.
stdin: What value of pKd has been recorded for this entry: KEQLQLLMPL
stdout: 6.80

stdin: What value of pKd has been recorded for this entry: LEGSISYSEL
stdout: 7.21

Now for a further sequence.
stdin: What value of pKd has been recorded for this entry: AESHMDADLA
stdout: 6.79

====

# Target desc: HLA-A*29:02
# Protocol notes: IEDB peptide-MHC binding, purified MHC/competitive/radioactivity; filed as Kd, often an IC50 or EC50 that approximates it; bounds were set here for any values at or beyond the usual limits of such assays
# Condition context: source organism: SARS coronavirus Tor2
pKd: −log10 of the molar value.
What pKd was measured for each of the following?

stdin: What value of pKd has been recorded for this entry: YFTNDVSFL
stdout: ≤ 4.12

Go through the list and state pKd for each entry.
1. GYTMHANYI
2. EFLTRNPAW

stdout:
["≤ 4.05", "≤ 4.34"]

====

# Target desc: HLA-A*02:02
# Protocol notes: IEDB peptide-MHC binding, purified MHC/competitive/radioactivity; filed as Kd, often an IC50 or EC50 that approximates it; bounds were set here for any values at or beyond the usual limits of such assays
# Condition context: source organism: Vaccinia virus WR
pKd: −log10 of the molar value.
Value kind: pKd

stdin: Which pKd is reported with HLA-A*02:02 for this entry: SLTIKDSSNK ?
stdout: ≤ 4.15

Go through the list and state pKd for each entry.
1. TVDFTDCRTI
2. CVDIFTEGKI

stdout:
1: ≤ 4.50; 2: ≤ 4.15

====

# Target desc: HLA-A*02:01
# Protocol notes: IEDB peptide-MHC binding, purified MHC/competitive/fluorescence; bounds were set here for any values at or beyond the usual limits of such assays
# Condition context: source organism: Sudan ebolavirus
pIC50: −log10 of the molar value.
Value kind: pIC50

Study these solved cases before continuing.
stdin: What value of pIC50 has been recorded for this entry: SVMATEEPT
stdout: ≤ 3.94

stdin: What value of pIC50 has been recorded for this entry: FHKDGAFFL
stdout: ≤ 4.03

Further cases:
stdin: What value of pIC50 has been recorded for this entry: GAFFLYDRL
stdout: ≤ 3.80

====

# Target desc: HLA-A*32:01
# Protocol notes: IEDB peptide-MHC binding, purified MHC/competitive/radioactivity; filed as Kd, often an IC50 or EC50 that approximates it; bounds were set here for any values at or beyond the usual limits of such assays
# Condition context: source organism: Vaccinia virus WR
// NB: equality with 0.5 nM counts as -1; only Kd strictly below is 1

stdin: Determine whether this sequence shows Kd lower than 0.5 nM (ties excluded): KLFYVYYNL
stdout: 1

stdin: Determine whether this sequence shows Kd lower than 0.5 nM (ties excluded): LTISFFLIM
stdout: -1

stdin: Determine whether this sequence shows Kd lower than 0.5 nM (ties excluded): RTYGVNYTF
stdout: 1

stdin: Determine whether this sequence shows Kd lower than 0.5 nM (ties excluded): FIKNKIHLL
stdout: -1

Further cases:
stdin: Determine whether this sequence shows Kd lower than 0.5 nM (ties excluded): RVLFNNFKI
stdout: -1

stdin: Determine whether this sequence shows Kd lower than 0.5 nM (ties excluded): RTFLIDLAF
stdout: 1

====

# Target desc: HLA-A*03:01
# Protocol notes: IEDB peptide-MHC binding, purified MHC/competitive/radioactivity; filed as Kd, often an IC50 or EC50 that approximates it; bounds were set here for any values at or beyond the usual limits of such assays
# Condition context: source organism: SARS coronavirus Tor2
What Kd was measured for each of the following?
Answers are plain numbers, in nM.

stdin: What value of Kd has been recorded for this entry: ASANLAATK
stdout: 77.1

Go through the list and state Kd for each entry.
1. WFFNNYLRK
2. VTTIMFLAR
3. VTLAILTALR
4. GLFCLLNRY
5. RQVVNVITTK
6. SVKGLTPSK
7. TVVIGTSKFY
8. AAYYFMKFRR

stdout:
[403, 329, 218, 839, 114, 7.56, 1100, 3050]

====

# Target desc: HLA-B*15:03
# Protocol notes: IEDB peptide-MHC binding, purified MHC/competitive/radioactivity; filed as Kd, often an IC50 or EC50 that approximates it; bounds were set here for any values at or beyond the usual limits of such assays
# Condition context: source organism: Vaccinia virus WR
Value kind: Kd (nM)
Numbers only, in nM.

stdin: What value of Kd has been recorded for this entry: KKVIGFVSI
stdout: 7.49

stdin: What value of Kd has been recorded for this entry: IKFAAGIII
stdout: 16

Now for a further sequence.
stdin: What value of Kd has been recorded for this entry: KIGMFNLTF
stdout: 12.6
